# TEST METHOD NOTES: Cytotoxicity against human Me300 cells after 72 hrs by MTT assay
# Type: functional, cell-based
# CONDITION DESCRIPTION: Me300, 72 h
ASSAY READOUT: IC50 (µM)
Note: unit µM is implicit; provide only the numeric part.

// query Bench note: what IC50 did CCN(CCO)CCCCOc1ccc2c(-c3ccc(Br)cc3)nsc2c1.Cl show?
// result 6.2

// query Requested field: IC50. Item: CC(C)c1c(C(=O)Nc2ccccc2)c(-c2ccccc2)c(-c2ccc(F)cc2)n1CC[C@@H](O)C[C@@H](O)CC(=O)O [ATORVASTATIN CALCIUM]
// result 1.2

// query So what does the record say about IC50 for CN(CC[C@H]1CC[C@H](C(=O)N2CCC(O)CC2)CC1)C(=O)Oc1ccc(Cl)cc1 ?
// result 25

// query Dear colleague, I am looking for the recorded IC50 of the following compound: CCN(CCO)CCCC#C[C@H]1CC[C@H](N(C)C(=O)Oc2ccc(Cl)cc2)CC1.Cl
// result 26.2

// query // lookup IC50 for C=CCN(C)CCCCC[C@H]1CC[C@H](N(C)C(=O)Oc2ccc(C(F)(F)F)cc2)CC1.O=C(O)CC(O)(CC(=O)O)C(=O)O
// result 16

// query Need IC50, item CN(CCO)CCCCC[C@H]1CC[C@H](N(C)S(=O)(=O)c2ccc(C(F)(F)F)cc2)CC1.O=C(O)/C=C/C(=O)O
// result 20.9

// query Quick one: IC50 for CCCN(C)CCCC#C[C@H]1CC[C@H](N(C)C(=O)Oc2ccc(Cl)cc2)CC1.O=C(O)/C=C/C(=O)O ?
// result 18.9

// query Find the recorded IC50 belonging to C=CCN(C)CCCCCCOc1ccc2c(-c3ccc(Br)cc3)nsc2c1.O=C(O)/C=C/C(=O)O and report it.
// result 13.4

// query I have this compound here, C=CCN(C)Cc1ccc(-c2ccc(C(=O)c3ccc(Br)cc3)cc2)cc1.Cl , and I need its recorded IC50.
// result 13.9

---

# TEST METHOD NOTES: physchem
# CONDITION DESCRIPTION: 1-octanol/TAPSO buffer, pH 7.4
# Description: 1-Octanol-TAPSO buffer distribution coefficient, log D of the compound at pH 7.4 by shake-flask method
ASSAY READOUT: logD
# answer = number (no unit)

// query Which logD is reported for this molecule? CN(CC[C@H]1CC[C@H](C(=O)N2CCC(O)CC2)CC1)C(=O)Oc1ccc(Cl)cc1
// result 2.93

// query Which measured logD value corresponds to CCCN(C)CCCC#C[C@H]1CC[C@H](N(C)C(=O)Oc2ccc(Cl)cc2)CC1.O=C(O)/C=C/C(=O)O ?
// result 3.28

// query Dear colleague, I am looking for the recorded logD of the following molecule: C=CCN(C)CCCCCCOc1ccc2c(-c3ccc(Br)cc3)nsc2c1.O=C(O)/C=C/C(=O)O
// result 3.43

// query Field request: logD | item: C=CCN(C)Cc1ccc(-c2ccc(C(=O)c3ccc(Br)cc3)cc2)cc1.Cl
// result 3.13

// query Query: logD; subject: CCN(CCO)CCCCOc1ccc2c(-c3ccc(Br)cc3)nsc2c1.Cl
// result 3.39

---

# System: MCF7
# TEST METHOD NOTES: cells
# CONDITION DESCRIPTION: Homo sapiens, MCF7, 72 h
# Description: Cytotoxicity against human MCF7 cells after 72 hrs by MTT assay
pIC50: −log10 of the molar value.
Record form. Attribute: pIC50. Fill in for each entry.

// query Name the recorded pIC50 for CCN(CCO)CCCC#C[C@H]1CC[C@H](N(C)C(=O)Oc2ccc(Cl)cc2)CC1.Cl .
// result < 4.52

// query Endpoint output: pIC50 of CN(CC[C@H]1CC[C@H](C(=O)N2CCC(O)CC2)CC1)C(=O)Oc1ccc(Cl)cc1 . Value?
// result < 4.52

// query Requested field: pIC50. Item: CCN(CCO)C[C@H]1CC[C@H](CCN(C)C(=O)Oc2ccc(C(F)(F)F)cc2)CC1.O=C(O)CC(O)(CC(=O)O)C(=O)O
// result < 4.52

// query I am curious: what pIC50 value has been reported for CCCN(C)CCCC#C[C@H]1CC[C@H](N(C)C(=O)Oc2ccc(Cl)cc2)CC1.O=C(O)/C=C/C(=O)O ?
// result < 4.52
